- procedure text: Plasma protein binding (equilibrium dialysis)
- Format: in vitro ADME
- measurement setup: pH 7.4; human plasma, 1 μM, 6 h dialysis, 37 °C; read-out: Fu (%), unbound fraction
- Protocol: PPB assays were carried out using the HTD 96-well equilibrium DIALYZERTM (Htdialysis, Gales Ferry, CT, USA). […] Then, the (solution A) was titrated with the (solution B) to pH 7.4 to prepare the dialysis buffer (solution C). The quench solution (solution D) consisted of Alprazolam (100 nM) and Ketoprofen (2 μM) in acetonitrile. Total 3 μL of testing plasm samples (dissolved in DMSO, 200 μM) was mixed with 597 μL of plasma (the final concentration was 1 μM). […]

compound	fraction unbound at 6 h, 1 µM
CC(=O)N1CCN(c2ccc(OCC3COC(Cn4ccnc4)(c4ccc(Cl)cc4Cl)O3)cc2)CC1 (stereo not shown)	0.0147
